- Tested on: HL-1
- protocolNotes: relative cell viability (CellTiter-Glo) vs DMSO control (% of DMSO control); higher = more viable cells
- condition: oxygen condition: normoxia 72 h; 200 nM
Structures can show the parent of a compound that is named as a salt.
measuredMetric: relative cell viability
Simply state the number, no unit and no words.

Looking for the measured relative cell viability of N[C@@H](Cc1cc(I)c(Oc2cc(I)c(O)c(I)c2)c(I)c1)C(=O)O , can you help?
101

Would you mind telling me what relative cell viability value was observed for CC(=O)O[C@@]12CO[C@@H]1C[C@H](O)[C@@]1(C)C(=O)[C@H](O)C3=C(C)[C@@H](OC(=O)[C@H](O)[C@@H](NC(=O)OC(C)(C)C)c4ccccc4)C[C@@](O)([C@@H](OC(=O)c4ccccc4)[C@H]21)C3(C)C ?
23

Any idea what relative cell viability was measured for CC[C@@H]1/C=C(\C)C[C@H](C)C[C@H](OC)[C@H]2O[C@@](O)(C(=O)C(=O)N3CCCC[C@H]3C(=O)O[C@H](/C(C)=C/[C@@H]3CC[C@H](Cl)[C@H](OC)C3)[C@H](C)[C@@H](O)CC1=O)[C@H](C)C[C@@H]2OC ?
99.1

Which measured relative cell viability value corresponds to Cc1cnc(C(=O)O)c[n+]1[O-] ?
104

Value lookup for relative cell viability; key = C[N+](C)(C)C[C@H](O)CC(=O)[O-]
107

Need relative cell viability of O=C(O[C@H]1CN2CCC1CC2)N1CCc2ccccc2[C@@H]1c1ccccc1 [Solifenacin succinate] , thanks.
112

Recorded relative cell viability of N=C(N)NC(=O)c1nc(Cl)c(N)nc1N [Amiloride hydrochloride] , please.
105

Fill in the blank: the reported relative cell viability of CN1CCN(C2=Nc3cc(Cl)ccc3Nc3ccccc32)CC1 is ____.
108

Reported relative cell viability, compound C[C@@H]1CCN(C(=O)CC#N)C[C@@H]1N(C)c1ncnc2[nH]ccc12 [Tofacitinib citrate] : ____
102

Could you share which relative cell viability value was measured for CCCCCCCN(CC)CCCC(O)c1ccc(NS(C)(=O)=O)cc1 (configuration not stated) [Ibutilide fumarate] ?
97.9

Find the recorded relative cell viability belonging to CCOC(=O)[C@H](CCc1ccccc1)N[C@@H](C)C(=O)N1CCC[C@H]1C(=O)O [Enalapril maleate] and report it.
103

What does the record list as relative cell viability for Clc1ccc2nsnc2c1NC1=NCCN1 [Tizanidine HCl] ?
106

Data request, read-out relative cell viability, for CN(C)CC/C=C1/c2ccccc2Sc2ccc(Cl)cc21
107

Recorded relative cell viability of CN1CCN(CCCN2c3ccccc3Sc3ccc(Cl)cc32)CC1 [Prochlorperazine Dimaleate] , please.
99.3

Look up relative cell viability: COc1cc2c(cc1O)CC[C@@H]1[C@@H]2CC[C@]2(C)[C@@H](O)CC[C@@H]12
105

# relative cell viability lookup, item O=c1[nH]c(=O)n(C2CCCO2)cc1F (configuration not stated)
101

Entry O=C[C@H](O)[C@@H](O)[C@H](O)CO has what relative cell viability?
105

Suppose we examine the compound CCCN(CCC)S(=O)(=O)c1ccc(C(=O)O)cc1 ; what relative cell viability value has been reported?
104

Look at this compound and give its reported relative cell viability. Nc1ccc(C(=O)O)c(O)c1 [Aminosalicylate sodium]
105

Look up relative cell viability: Nc1cccc2c1CN(C1CCC(=O)NC1=O)C2=O (configuration not stated) [Lenalidomide]
117

// relative cell viability lookup, key: NC[C@H](O)c1ccc(O)c(O)c1 [Noradrenaline bitartrate monohydrate]
99.7

Consider the compound CC/C(=C(\c1ccccc1)c1ccc(OCCN(C)C)cc1)c1ccccc1 [Tamoxifen Citrate] and give its measured relative cell viability.
107

relative cell viability lookup needed for CCN(CC)C(=S)SSC(=S)N(CC)CC , thanks.
11.5

Need relative cell viability of N=C(N)NC(=O)c1nc(Cl)c(N)nc1N [Amiloride hydrochloride dihydrate] , thanks.
102

Name the recorded relative cell viability for COc1cc([C@@H]2c3cc4c(cc3[C@@H](O[C@@H]3O[C@@H]5CO[C@@H](C)O[C@H]5[C@H](O)[C@H]3O)[C@H]3COC(=O)[C@H]23)OCO4)cc(OC)c1O [Etoposide] .
60.8

Look at this compound and give its reported relative cell viability. O=C1N=C(O)NC1(c1ccccc1)c1ccccc1 [Phenytoin sodium]
101

Item under review: Cc1onc(-c2ccccc2Cl)c1C(=O)N[C@@H]1C(=O)N2[C@@H]1SC(C)(C)[C@@H]2C(=O)O [Cloxacillin sodium] . Reported relative cell viability?
102

Consider the compound CC(CN(C)C)CN1c2ccccc2CCc2ccccc21 (configuration not stated) [Trimipramine Maleate] and give its measured relative cell viability.
101

// lookup relative cell viability for CN(Cc1cc(Br)cc(Br)c1N)C1CCCCC1 [Bromhexine HCl]
108

Tell me the measured relative cell viability of C[C@]12CCC(=O)C=C1[C@@H]1C[C@@H]1[C@H]1[C@@H]3[C@@H]4C[C@@H]4[C@@]4(CCC(=O)O4)[C@@]3(C)CC[C@@H]12 , please.
112

Param item = Cc1cn(-c2cc(NC(=O)c3ccc(C)c(Nc4nccc(-c5cccnc5)n4)c3)cc(C(F)(F)F)c2)cn1 ; retrieve measured relative cell viability.
104

Which relative cell viability value belongs to CCC[C@@H]1C[C@@H](C(=O)N[C@@H]([C@H]2O[C@H](SC)[C@H](O)[C@@H](O)[C@H]2O)[C@@H](C)O)N(C)C1 [Lincomycin hydrochloride] ?
98.3
